The measured values listed here are drawn from patent US9428549B2.

target: FPR2 (Homo sapiens); test: Compound-induced calcium activity on FLIPR Tetra in CHO-Gα16 cells stably expressing FPRL1; conditions: tested 0.61 to 10,000 nM, read-out: FPR2 Ga16-CHO EC50
Sequence (P25090 whole entry): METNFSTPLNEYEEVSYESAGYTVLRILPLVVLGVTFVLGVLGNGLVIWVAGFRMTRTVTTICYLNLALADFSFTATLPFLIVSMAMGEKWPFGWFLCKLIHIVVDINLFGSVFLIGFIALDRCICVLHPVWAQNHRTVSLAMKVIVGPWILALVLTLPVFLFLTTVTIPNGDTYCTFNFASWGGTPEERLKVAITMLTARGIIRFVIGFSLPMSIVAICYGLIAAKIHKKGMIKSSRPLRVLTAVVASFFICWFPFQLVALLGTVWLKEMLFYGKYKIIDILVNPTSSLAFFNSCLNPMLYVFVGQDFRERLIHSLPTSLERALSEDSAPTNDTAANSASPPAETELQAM
Consider the cut-off 0.2 µM. If the recorded EC50 is strictly smaller, the label is true (1); if not, the label is false (0).

Exam item: I'd appreciate it if you could check whether `CCCN(CC(=O)OC(C)(C)C)C(=O)[C@H](CC(C)C)NC(=O)Nc1ccc(Br)cc1` has EC50 smaller than 0.2 µM.
Marked response: true (1)

Exam item: Is the reported EC50 for `CC(C)C[C@H](NC(=O)Nc1ccc(C(F)(F)F)cc1)C(=O)N(C)CC(=O)O` strictly below 0.2 µM?
Marked response: true (1)

Exam item: In the record for `CCN(CC(=O)OC(C)(C)C)C(=O)[C@H](CC(C)C)NC(=O)Nc1ccc(Br)cc1` , is EC50 less than 0.2 µM?
Marked response: false (0)

Exam item: Strictly below 0.2 µM in EC50? `CC(C)C[C@H](NC(=O)Nc1ccc(Br)cc1)C(=O)N(CC(=O)OC(C)(C)C)C(C)C`
Marked response: true (1)

Exam item: Just wondering, is EC50 of `CCN(CC(=O)OC(C)(C)C)C(=O)[C@H](CC(C)C)NC(=O)Nc1ccc(C(F)(F)F)cc1` below 0.2 µM?
Marked response: true (1)
